The measurements presented in this section are drawn from patent US20210292393A1.

Form field: kon (one value per entry).
target: SARS-CoV-2 spike protein (SARS-CoV-2), P0DTC2; conditions: remark: other sources report otherwise
Quick reminder: number only, in M⁻¹ s⁻¹, skip the unit.

[
  {
    "binder": "antibody 444 (antibody, V domains shown) VH: QVQLVESGGGLVKPGGSLRLSCAASGFTFSDYYMSWIRQAPGKGLEWVSYISSSGSTIYYADSVKGRFTISRDNAKNSLYLQMNSLRAEDTAVYYCARERKVVVAATRNYYYYYGMDVWGQGTTVTVSS VL: SYELTQPPSVSVSPGQTARITCSGDALPKQYAYWYQQKPGQAPVLVIYKDSERPSGIPERFSGSSSGTTVTLTISGVQAEDEADYYCQSADSSTWVFGGGTKLTVL",
    "kon / M⁻¹ s⁻¹": 26400
  }
]

Moving on to the next binder.
Which kon is listed for antibody 390 (antibody, V domains shown) VH: EVQLVESGGGLIQPGGSLRLSCAASGFTVSSNYMSWVRQAPGKGLEWVSIIYSGGSTYYADSVKGRFTISRDNSKNTLYLQMNSLRAEDSAVYSCATTMVRGLIISYYYGMDVWGQGTTVTVSS VL: QSALTQPASVSGSPGQSITISCTGTSSDVGGYNYVSWYQQHPGKAPKLMIYEVSNRPSGVSNRFSGSKSGNTASLTISGLQAEDEADYYCSSYTSSSTLVFGGGTKLTVL ? 129000
